Data credit: paper PMC12040169

experiment: in vitro; conditions: human, hela cells, % viability
Let's look at some molecules and their measured viability at 28.5 h, 10 µM.
Readout: viability at 28.5 h, 10 µM (%)

1. CS(=O)(=O)NC1CCN(S(=O)(=O)c2cc(Cl)cc(Cl)c2)CC1 :: 84.3
2. Cc1ccc(C(=O)N2CN(C(=O)CNC3CC3)CC2(C)C)cc1 [CBK089574C] :: 98.4
3. CC12CN3CCN(CC(C3)C1(O)CN1CCOCC1)C2 (centres unmarked) :: 103
4. CC(C)c1cc(C(=O)NC(c2ccccc2)c2ccnn2C)n(C)n1 (centres unmarked) :: 102
5. COc1cc(OC)nc(N2CCN(c3nccnc3NS(=O)(=O)C3CC3)CC2)n1 :: 109
6. COc1ccc2c(c1)c(C(C(=O)O)N1CCN(c3ccccn3)CC1)cn2CC(=O)O (centres unmarked) :: 98
7. COc1ccc(-c2cnc(NCC3CC3)c(C(=O)NCc3ccco3)c2)cc1 :: 96.3
8. COc1ccc(C2(C(=O)NCc3ccc(OC(F)(F)F)cc3)CC2)cc1 :: 117
9. CCCCCC1=NN(C(=O)c2ccccc2Br)C(O)(C(F)(F)F)C1 (centres unmarked) :: 104
10. COc1ccc2[nH]c3c(c2c1)CCN(S(C)(=O)=O)C31CCN(CCOc2ccccc2)C1 (centres unmarked) [CBK063187T] :: 92.9
11. CCCn1cc(C(CC(=O)O)C(=O)O)c2ccccc21 (centres unmarked) :: 92.4
12. O=C1CC(c2ccc(Br)cc2)Nc2ccc3ccccc3c21 (centres unmarked) :: 93.4
13. CC(C)[C@@H](CO)Nc1cncc(-c2cccnc2)n1 :: 98.5
14. O=[N+]([O-])c1ccc(S(=O)(=O)Nc2nnc(C3CCCCC3)s2)cc1 :: 94.8
15. COc1cccc(-c2nnn(CC(=O)O)n2)c1 :: 94.9
16. Cc1ccc(C(=O)NCc2nc3ccccc3[nH]2)c(N2CCOCC2)n1 :: 88.4
17. CCn1nccc1C(=O)NC1=C(C#N)CCC1 :: 97.6
18. CSCCC(=O)NC1CCCc2nc(N3CCC(CO)CC3)ncc21 (centres unmarked) :: 91.3
19. COc1ccc(-c2cc(C(=O)NCC(=O)O)c(C)o2)cc1OC :: 86.7
20. Cn1nc(CN2CCNC(=O)C2c2ccccc2C(F)(F)F)[nH]c1=O (centres unmarked) :: 91.3
